All values here come from patent US20060292203A1.

# test: Water solubility (pH 5)
# condition label: pH 5
Each record here notes measured Water solubility.

Example entries and their recorded answers appear below.
{"compound": "CC1(C)O[C@@H]2C[C@H]3[C@@H]4CCC5=CC(=O)C=C[C@]5(C)[C@@]4(F)[C@@H](O)C[C@]3(C)[C@]2(C(=O)CO)O1 [TAA, reference compound]", "result": "<0.1 mg/mL"}
{"compound": "Cc1cc(Nc2ncc3cc(-c4c(Cl)cccc4Cl)c(=O)n(C)c3n2)ccc1F [PD180970, reference compound]", "result": "<<0.1 mg/mL"}
{"compound": "Cc1ccc(-c2nn(C(C)(C)C)c3ncnc(N)c23)cc1 [PP1, reference compound]", "result": "<0.1 mg/mL"}

Now consider a different compound.
Data request: Value lookup for Water solubility; key = CP(C)(=O)c1ccc(Nc2nc(C3CCCC3)nc3c2ncn3CCc2cccc(O)c2)cc1 [AP23464, reference compound]
Data returned: >0.1 mg/mL
